# Assay type: in vivo, human
# TEST CONDITIONS: human, plasma, po, 200 mg, t½, GM, single oral dose 200 mg; normal (n = 9)

MOLECULAR STRING	MEASUREMENT UNITS	half-life
CNC(=O)c1ccc(-c2cnc3ncc(Cc4ccc5ncccc5c4)n3n2)cc1F	h	10.4

====

# Type: in vivo, human
# TEST CONDITIONS: human, plasma, po, 200 mg, AUClast, GM, single oral dose 200 mg; normal (n = 9)

MOLECULAR STRING	AUC(0-t) / µg·h/mL
CNC(=O)c1ccc(-c2cnc3ncc(Cc4ccc5ncccc5c4)n3n2)cc1F	6.19

====

# Type: in vivo, human
# TEST CONDITIONS: human, plasma, po, 200 mg, AUCinf, GM, single oral dose 200 mg; normal (n = 9)

MOLECULAR STRING	AUC(0-inf) / ng·h/mL
CNC(=O)c1ccc(-c2cnc3ncc(Cc4ccc5ncccc5c4)n3n2)cc1F	6240
